# system.tested: melanocortin-5 receptor (human, UniProt P33032 1-325)
# Sequence (P33032 whole entry): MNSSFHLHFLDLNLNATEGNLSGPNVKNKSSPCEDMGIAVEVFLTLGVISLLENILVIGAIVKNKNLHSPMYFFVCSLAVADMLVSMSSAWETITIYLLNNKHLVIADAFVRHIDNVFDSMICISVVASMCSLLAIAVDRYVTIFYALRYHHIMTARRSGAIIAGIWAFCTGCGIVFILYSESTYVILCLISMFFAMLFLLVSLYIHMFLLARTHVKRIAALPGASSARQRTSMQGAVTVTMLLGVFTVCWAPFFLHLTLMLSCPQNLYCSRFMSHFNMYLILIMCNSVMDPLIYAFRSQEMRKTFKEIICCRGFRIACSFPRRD
# assay.summary: cell-based or functional assay
Bridge positions count the residues as written; N and C are the ends. Square brackets hold non-standard residues; d marks the D form. dPhe(4-F) = N[C@H](Cc1ccc(F)cc1)C(=O)O; Pen = CC(C)(S)[C@H](N)C(=O)O; hCys = N[C@@H](CCS)C(=O)O
experimental.readout: Ratios of EC50 values: MC5/4
Respond using a number only.

# count of solved cases: 6
Ac-R[hCys][dA][dF]RW[Pen]-NH2 (disulfide 2-7; SMILES CC(=O)N[C@@H](CCCNC(=N)N)C(=O)N[C@H]1CCSSC(C)(C)[C@@H](C(N)=O)NC(=O)[C@H](Cc2c[nH]c3ccccc23)NC(=O)[C@H](CCCNC(=N)N)NC(=O)[C@@H](Cc2ccccc2)NC(=O)[C@@H](C)NC1=O) [Compound 17: Ac-Arg-cyclo[hCys-D-Ala-D-Phe-Arg-Trp-Pen]-NH2] | 159
Ac-RC[dA]P[dPhe(4-F)]RWC-NH2 (disulfide 2-8; SMILES CC(=O)N[C@@H](CCCNC(=N)N)C(=O)N[C@H]1CSSC[C@@H](C(N)=O)NC(=O)[C@H](Cc2c[nH]c3ccccc23)NC(=O)[C@H](CCCNC(=N)N)NC(=O)[C@@H](Cc2ccc(F)cc2)NC(=O)[C@@H]2CCCN2C(=O)[C@@H](C)NC1=O) [Compound 14: Ac-Arg-cyclo[Cys-D-Ala-Pro-D-Phe(p-F)-Arg-Trp-Cys]-NH2] | 12
Ac-RC[dV]H[dF]RWC-NH2 (disulfide 2-8) [Compound 4: Ac-Arg-cyclo[Cys-D-Val-His-D-Phe-Arg-Trp-Cys]-NH2] | 584
Ac-RC[dA]P[dF]RWC-NH2 (disulfide 2-8; SMILES CC(=O)N[C@@H](CCCNC(=N)N)C(=O)N[C@H]1CSSC[C@@H](C(N)=O)NC(=O)[C@H](Cc2c[nH]c3ccccc23)NC(=O)[C@H](CCCNC(=N)N)NC(=O)[C@@H](Cc2ccccc2)NC(=O)[C@@H]2CCCN2C(=O)[C@@H](C)NC1=O) [Compound 13: Ac-Arg-cyclo[Cys-D-Ala-Pro-D-Phe-Arg-Trp-Cys]-NH2] | 13
Ac-RC[dL]H[dF]RWC-NH2 (disulfide 2-8) [Compound 1: Ac-Arg-cyclo[Cys-D-Leu-His-D-Phe-Arg-Trp-Cys]-NH2] | 130
Ac-R[hCys]A[dF]RWC-NH2 (disulfide 2-7; SMILES CC(=O)N[C@@H](CCCNC(=N)N)C(=O)N[C@H]1CCSSC[C@@H](C(N)=O)NC(=O)[C@H](Cc2c[nH]c3ccccc23)NC(=O)[C@H](CCCNC(=N)N)NC(=O)[C@@H](Cc2ccccc2)NC(=O)[C@H](C)NC1=O) [Compound 15: Ac-Arg-cyclo[hCys-Ala-D-Phe-Arg-Trp-Cys]-NH2] | 161

Next item in the queue.
Exercise: Which Ratios of EC50 values: MC5/4 value belongs to Ac-RC[dA]W[dF]RWC-NH2 (disulfide 2-8; SMILES CC(=O)N[C@@H](CCCNC(=N)N)C(=O)N[C@H]1CSSC[C@@H](C(N)=O)NC(=O)[C@H](Cc2c[nH]c3ccccc23)NC(=O)[C@H](CCCNC(=N)N)NC(=O)[C@@H](Cc2ccccc2)NC(=O)[C@H](Cc2c[nH]c3ccccc23)NC(=O)[C@@H](C)NC1=O) [Compound 7: Ac-Arg-cyclo[Cys-D-Ala-Trp-D-Phe-Arg-Trp-Cys]-NH2] ?
Solution: 7
